Target: MecI (Staphylococcus aureus, UniProt P68261)
Construct: full-length with C-terminal His6 (pET22b), recombinant, purified; homodimer; 15N-labelled for NMR
Experiment: NMR titration, 1H-15N SOFAST-HMQC chemical shifts
observed.property: Kd (mM)
One number for each entry, in mM.

q: Can you share its Kd? I mean this compound: NCCCC[C@H](NC(=O)CC[C@@H](N)C(=O)O)C(=O)O [dipeptide 2, γ-D-Glu-L-Lys]
a: 8
